The measurements presented in this section are drawn from patent US8093301B2.

- System: basophil-like cells (RBL-2H3)
- METHOD_NOTES: β-hexosaminidase release inhibition test (degranulation of IgE-sensitised, DNP-BSA-stimulated cells)
- Type: cell-based
- CONDITION_DESCRIPTION: RBL-2H3, 30 minutes incubation with test substance, DNP-BSA stimulation; read-out: 50% β-hexosaminidase release inhibitory concentration (IC50)
pIC50: −log10 of the molar value.
QUANTITY_NAME: pIC50

In: What does the data say about its pIC50? Entry: CC1=C(C/C=C(\C)CCC[C@H](C)CCC[C@H](C)CCCC(C)C)C(=O)c2ccccc2C1=O [Vitamin K1, phylloquione, reference compound]
Out: < 4.00

---

- System: basophil-like cells (RBL-2H3)
- METHOD_NOTES: β-hexosaminidase release inhibition test (degranulation of IgE-sensitised, DNP-BSA-stimulated cells)
- Format: cell-based
- CONDITION_DESCRIPTION: Rattus norvegicus, RBL-2H3, RBL-2H3, same IC50 expressed in μg/mL; read-out: 50% β-hexosaminidase release inhibitory concentration (IC50)
- Description: In the Examples, the degree of cell degranulation was assessed through determination of β-hexosaminidase activity. […] The thus-incubated basophil-like cells (RBL-2H3) were washed with PBS, and further incubated at 37° C. for one hour in the presence of 1-μg/mL DNP-BSA (product of SSL). After completion of incubation, a supernatant was recovered from each well, and the activity of β-hexosaminidase contained in each supernatant was determined. […]
Assignment: determine reported log10 IC50 for the given molecules.
# values: log10(IC50), units µg/mL

In: Recorded log10 IC50 for O=C(O)c1cc(O)c2ccccc2c1O [DHNA, 1,4-dihydroxy-2-naphthoic acid] , please?
Out: 0.91

In: Similarly, `O=C1C=CC(=O)c2ccccc21` ?
Out: 0.67

In: Also `NC1=C(C(=O)O)C(=O)c2ccccc2C1=O` , if possible.
Out: -1.26

In: Same read-out for `NC1=C(Cl)C(=O)c2ccccc2C1=O` ?
Out: 0.15

In: Input `CC1=CC(=O)c2ccccc2C1=O`
Out: 1.06

In: Would you kindly repeat that for `Cc1cc(N)c2ccccc2c1O` ?
Out: 0.79
